# Target or test system: Vascular endothelial growth factor receptor 3 (Homo sapiens)
# Sequence (P35916 whole entry): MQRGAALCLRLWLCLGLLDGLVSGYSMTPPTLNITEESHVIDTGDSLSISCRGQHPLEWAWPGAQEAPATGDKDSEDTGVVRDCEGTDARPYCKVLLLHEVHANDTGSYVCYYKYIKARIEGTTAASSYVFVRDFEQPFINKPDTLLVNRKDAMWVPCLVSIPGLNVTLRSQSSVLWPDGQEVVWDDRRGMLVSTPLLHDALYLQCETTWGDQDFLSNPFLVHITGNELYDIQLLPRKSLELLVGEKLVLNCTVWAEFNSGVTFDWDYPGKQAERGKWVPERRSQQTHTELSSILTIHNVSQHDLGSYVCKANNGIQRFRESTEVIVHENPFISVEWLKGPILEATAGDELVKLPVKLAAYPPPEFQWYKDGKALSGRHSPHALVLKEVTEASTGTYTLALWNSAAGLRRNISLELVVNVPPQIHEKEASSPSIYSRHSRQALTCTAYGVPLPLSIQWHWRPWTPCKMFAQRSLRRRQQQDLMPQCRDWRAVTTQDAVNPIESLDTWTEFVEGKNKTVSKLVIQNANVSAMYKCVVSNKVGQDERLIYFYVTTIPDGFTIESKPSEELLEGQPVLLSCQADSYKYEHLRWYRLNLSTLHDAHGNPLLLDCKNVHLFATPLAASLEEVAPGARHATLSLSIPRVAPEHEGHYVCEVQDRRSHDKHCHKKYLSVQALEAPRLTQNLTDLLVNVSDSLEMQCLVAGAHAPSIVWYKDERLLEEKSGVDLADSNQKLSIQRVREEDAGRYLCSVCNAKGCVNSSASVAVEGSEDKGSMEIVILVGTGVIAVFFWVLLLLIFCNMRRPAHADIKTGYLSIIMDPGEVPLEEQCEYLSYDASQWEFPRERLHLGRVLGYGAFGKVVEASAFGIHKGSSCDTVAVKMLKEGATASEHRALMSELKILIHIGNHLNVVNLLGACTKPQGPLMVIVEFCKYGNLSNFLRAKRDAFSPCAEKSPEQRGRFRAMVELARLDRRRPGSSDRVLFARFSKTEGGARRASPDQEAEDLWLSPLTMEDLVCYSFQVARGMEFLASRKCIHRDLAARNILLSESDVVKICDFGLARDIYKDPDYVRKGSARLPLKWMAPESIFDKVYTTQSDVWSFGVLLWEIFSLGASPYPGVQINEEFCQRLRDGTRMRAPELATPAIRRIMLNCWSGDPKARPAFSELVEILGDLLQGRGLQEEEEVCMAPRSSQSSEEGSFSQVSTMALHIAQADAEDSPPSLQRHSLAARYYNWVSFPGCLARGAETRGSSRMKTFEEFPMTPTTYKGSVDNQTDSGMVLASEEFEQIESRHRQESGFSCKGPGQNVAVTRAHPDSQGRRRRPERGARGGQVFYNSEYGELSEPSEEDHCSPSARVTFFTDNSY
# Assay overview: FLT4(FLT4LGY1) Takeda global kinase panel
Measurement name: IC50 (nM)
Give bare numbers, in nM.

| Compound | IC50 (nM) |
| --- | --- |
| CN1C(=O)[C@@H](N2CCc3cn(CC4CCS(=O)(=O)CC4)nc3C2=O)COc2ccccc21 [TP-030n] | 1000 |

Attention now turns to another entry.
Per the records, this compound ( "CN1C(=O)[C@@H](N2CCc3cn(Cc4ccccc4)nc3C2=O)COc2ccccc21" ) has IC50 equal to 1000

###

Target sequence: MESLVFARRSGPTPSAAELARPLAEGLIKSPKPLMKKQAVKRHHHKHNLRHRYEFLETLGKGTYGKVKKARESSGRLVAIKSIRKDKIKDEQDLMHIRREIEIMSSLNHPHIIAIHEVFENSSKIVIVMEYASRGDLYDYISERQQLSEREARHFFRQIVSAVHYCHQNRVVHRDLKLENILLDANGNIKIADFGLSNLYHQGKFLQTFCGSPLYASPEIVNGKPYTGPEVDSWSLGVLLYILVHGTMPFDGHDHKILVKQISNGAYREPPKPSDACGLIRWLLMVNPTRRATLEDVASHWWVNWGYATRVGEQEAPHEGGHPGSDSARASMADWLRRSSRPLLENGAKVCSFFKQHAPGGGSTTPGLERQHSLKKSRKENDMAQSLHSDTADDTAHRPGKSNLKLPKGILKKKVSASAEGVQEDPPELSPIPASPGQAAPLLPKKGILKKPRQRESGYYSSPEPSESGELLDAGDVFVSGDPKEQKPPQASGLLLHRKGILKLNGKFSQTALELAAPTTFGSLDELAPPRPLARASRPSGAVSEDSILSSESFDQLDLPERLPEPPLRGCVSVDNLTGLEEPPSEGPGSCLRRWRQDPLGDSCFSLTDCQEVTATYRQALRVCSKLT
Measurement name: IC50 (nM)
One number for each entry, in nM.

| Compound | Unit label | IC50 |
| --- | --- | --- |
| CN1C(=O)[C@@H](N2CCc3cn(CC4CCS(=O)(=O)CC4)nc3C2=O)COc2ccccc21 [TP-030n] | nM | 1000 |

Please turn your attention to the following entry.
Measured IC50 of CN1C(=O)[C@@H](N2CCc3cn(Cc4ccccc4)nc3C2=O)COc2ccccc21 [TP-030-1] : 1000

Sourced from ChEMBL document CHEMBL4507327
